PROTOCOL NOTES: reversal of MRP1-mediated doxorubicin resistance, pilot screen, H69AR cells, doxorubicin co-treatment (AID 601)
CONDITION INFO: H69AR cells, CellTiter-Glo, 72 h; compound alone cytotoxicity; at 10 µM
QUANTITY NAME: viability (%)
Unit % implied. Number only.

Consider the worked cases shown below.
CCn1cc(C(=O)NCCN(C)CCc2ccccc2)c(=O)c2cc(S(=O)(=O)N(C)C)ccc21; 81.2
CCOCC(=O)Nc1c(C(=O)Nc2ccc(OC)cc2OC)oc2ccccc12; 48
CCNC(=O)CC1C(=O)N(c2ccccc2)C(=O)N1CCC(C)C (stereo unspecified); 93.5
Cc1ccc2nc(C3CCN(CC(=O)N4CCCCCC4)CC3)[nH]c2c1; 96.3
CCOC(=O)c1cccc(NC(=O)CSc2nnc(-c3cccnc3)n2C)c1; 98.3

Prompt: Which viability value belongs to "Cc1nnc(Nc2ccccn2)c2ccccc12" ?
Response: 87.3

Prompt: Which viability value belongs to CCn1cc(C(=O)NC2CCc3ccccc32)c(=O)c2ccc(C)nc21 (stereo unspecified) ?
Response: 81.6

----------
This listing pairs compounds with measured Her2 level.
SYSTEM: Receptor tyrosine-protein kinase erbB-2 (Homo sapiens) (UniProt P04626)
Sequence (P04626 whole entry, looked up): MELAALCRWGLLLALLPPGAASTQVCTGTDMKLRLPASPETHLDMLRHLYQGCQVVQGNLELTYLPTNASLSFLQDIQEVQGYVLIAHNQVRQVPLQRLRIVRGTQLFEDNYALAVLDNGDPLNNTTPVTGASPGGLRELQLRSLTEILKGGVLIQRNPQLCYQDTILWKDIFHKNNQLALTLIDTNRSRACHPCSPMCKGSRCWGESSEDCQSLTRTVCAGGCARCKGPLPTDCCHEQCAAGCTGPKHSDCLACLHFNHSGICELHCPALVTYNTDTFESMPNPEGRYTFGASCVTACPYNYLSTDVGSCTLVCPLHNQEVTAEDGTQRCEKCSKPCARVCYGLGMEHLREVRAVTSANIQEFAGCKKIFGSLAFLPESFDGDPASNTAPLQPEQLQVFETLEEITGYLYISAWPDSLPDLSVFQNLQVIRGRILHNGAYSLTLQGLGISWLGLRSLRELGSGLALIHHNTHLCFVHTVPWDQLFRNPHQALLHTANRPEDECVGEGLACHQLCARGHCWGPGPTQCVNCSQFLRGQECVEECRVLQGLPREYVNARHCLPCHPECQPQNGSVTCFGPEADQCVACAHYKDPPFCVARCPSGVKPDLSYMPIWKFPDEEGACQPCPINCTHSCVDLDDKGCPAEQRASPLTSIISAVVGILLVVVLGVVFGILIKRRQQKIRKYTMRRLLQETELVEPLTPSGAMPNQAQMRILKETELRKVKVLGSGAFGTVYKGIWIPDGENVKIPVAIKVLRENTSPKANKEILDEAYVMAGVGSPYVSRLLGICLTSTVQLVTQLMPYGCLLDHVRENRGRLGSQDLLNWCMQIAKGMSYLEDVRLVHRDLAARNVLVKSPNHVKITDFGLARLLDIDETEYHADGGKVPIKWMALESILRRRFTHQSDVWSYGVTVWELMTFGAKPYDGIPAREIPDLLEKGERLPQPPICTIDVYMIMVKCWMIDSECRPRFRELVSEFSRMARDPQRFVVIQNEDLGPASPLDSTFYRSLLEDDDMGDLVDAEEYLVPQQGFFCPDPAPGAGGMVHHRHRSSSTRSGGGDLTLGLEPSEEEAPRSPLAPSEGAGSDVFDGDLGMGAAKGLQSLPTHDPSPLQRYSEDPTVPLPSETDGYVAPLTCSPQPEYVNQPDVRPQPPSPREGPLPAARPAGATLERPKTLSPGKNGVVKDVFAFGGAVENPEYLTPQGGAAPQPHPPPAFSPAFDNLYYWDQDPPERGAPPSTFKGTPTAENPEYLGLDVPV
PROTOCOL NOTES: reducers of endogenous Her2 protein level, primary screen, SKBR3 breast tumor cells, AlphaScreen, ATP viability (AID 461);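 for Her2 level: lower value means less Her2 protein in the cells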;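 for viability: percent of carrier control wells set as 100% viability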
CONDITION INFO: 18-24 h, at 10 µM, stronger effect = lower value
Unit % implied. Number only.

Consider the worked cases shown below.
Cc1nnc2ccc(N3CCC4(CC3)OCCO4)nn12; 89.5
CCn1c2ccccc2c2cc(NC(=O)Cc3ccc(S(=O)(=O)N4CCOCC4)s3)ccc21; 76.5
CCCC(=O)Nc1ccc(OCC(=O)OC)cc1; 78.5
c1ccc(-c2csc(N3CCCCCC3)n2)cc1; 104
O=C(Cn1nc(-c2ccc(Cl)cc2)ccc1=O)NCCCN1CCN(Cc2ccccc2)CC1; 106
O=C(NC1CCCCC1)C(c1ccccc1)N(Cc1ccco1)C(=O)Cn1cnc2ccccc21 (stereo unspecified); 90
Cc1ccc(S(=O)(=O)CCC(=O)Nc2ccc3c(c2)OCO3)cc1; 84.5
OC(CN1CCN(c2ccccc2)CC1)c1ccc2c(c1)CCN2 (stereo unspecified); 110

Prompt: Which Her2 level value belongs to COc1ccc(C(=O)CN2C(=O)NC3(CCCc4ccccc43)C2=O)cc1OC (stereo unspecified) ?
Response: 84.5

Prompt: Which Her2 level value belongs to "CCOC(=O)c1[nH]c(C)c(C(=O)Nc2ccccc2F)c1C" ?
Response: 75.5

Prompt: Which Her2 level value belongs to Cc1ccc(C2CC(c3cccc(Br)c3)Nc3nnnn32)cc1 (stereo unspecified) ?
Response: 79.5

----------
PROTOCOL NOTES: HUVEC growth inhibition – cell-based, human, primary screen (AID 575);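 note: 100% = median of untreated cell wells with 0.1% DMSO on each plate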
CONDITION INFO: HUVEC proliferation, CellTiter-Glo luminescence, 72 h; at 10 µM; stronger effect = lower value
QUANTITY NAME: viability (%)
Unit % implied. Number only.

Consider the worked cases shown below.
COc1ccc(Cn2c(N)c(C#N)c3nc4ccccc4nc32)cc1OC; 100
O=C(Nc1ncnc2sc3c(c12)CCCCC3)c1ccco1; 91.5

Prompt: Which viability value belongs to "Cc1ccc(Cn2c(C)nc3c(c2=O)c2nc4ccccc4nc2n3Cc2ccco2)cc1" ?
Response: 54.9

Prompt: Which viability value belongs to "CCn1c(Cc2ccccc2)nnc1SCC(=O)Nc1cc(C)on1" ?
Response: 114

Prompt: Which viability value belongs to COc1ccc(/C(O)=C2\C(=O)C(=O)N(c3cc(C)on3)C2c2ccccc2OC)cc1 (stereo not drawn) ?
Response: 101

Prompt: Which viability value belongs to COc1ccccc1NC(=O)CC(NCc1ccccc1)C(=O)O (stereo not drawn) ?
Response: 110

----------
PROTOCOL NOTES: reversal of MRP1-mediated doxorubicin resistance, pilot screen, H69AR cells, doxorubicin co-treatment (AID 601)
CONDITION INFO: H69AR cells, CellTiter-Glo, 72 h; compound alone cytotoxicity; at 10 µM
Quick rule for you: viability under 90% gets TRUE, anything else gets FALSE.

Observe how each entry below is paired with its result.
COC(=O)C1(C)NC(c2cccs2)C2C(=O)N(c3ccccc3F)C(=O)C21 (stereo unspecified); FALSE
CCSc1nc2c(c(=O)n(C)c(=O)n2C)n1Cc1ccc(Cl)cc1; TRUE
CCCc1ccccc1OCCNC(C)=O; FALSE
COC(=O)Nc1ccc(S(=O)(=O)N2CCCCCC2)cc1; TRUE

Prompt: Lab note: viability threshold 90%. Does this molecule come in strictly under it? "Cn1c(=O)[nH]c(=O)c2c1nc(Br)n2CCCSc1nc2ccccc2o1"
Response: TRUE

----------
This listing pairs compounds with measured viability.
PROTOCOL NOTES: reducers of endogenous Her2 protein level, primary screen, SKBR3 breast tumor cells, AlphaScreen, ATP viability (AID 461);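 for viability: percent of carrier control wells set as 100% viability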
CONDITION INFO: 18-24 h, measured here: SKBR3 viability, ATP luminescence, at 10 µM
Unit % implied. Number only.

CCOC(=O)Cn1nnnc1CN(Cc1ccc(OC)cc1)Cc1cc2cc(C)cc(C)c2[nH]c1=O; 95
CCOC(=O)CSc1nn(C)c(=S)s1; 97.5
C=CCNC(=O)CNS(=O)(=O)c1ccc(F)cc1; 87
Cn1c(Cc2ccccc2)nnc1SCC(=O)c1ccc(Br)s1; 97.5
O=C(c1cccc(C(=O)N2CCN(c3ccc(F)cc3)CC2)c1)N1CCN(c2ccc(F)cc2)CC1; 110

Turning now to a further compound:
Prompt: Which viability value belongs to COc1cc(C2c3c(n[nH]c3C)C(=O)N2c2ccc(C)cc2)ccc1O (stereo unspecified) ?
Response: 113

----------
PROTOCOL NOTES: reversal of MRP1-mediated doxorubicin resistance, pilot screen, H69AR cells, doxorubicin co-treatment (AID 601)
CONDITION INFO: H69AR cells + 2 uM doxorubicin, CellTiter-Glo, 72 h; at 10 µM; stronger effect = higher value
QUANTITY NAME: differential viability (reversal) (%)
Unit % implied. Number only.

Consider the worked cases shown below.
COc1ccc(-n2c(=O)cc(N3CCN(Cc4ccccc4)CC3)[nH]c2=O)cc1; -17.5
Cc1cc(C)cc(-n2ccnc2SCC(=O)Nc2ccc3c(c2)OCCO3)c1; 8.09

Prompt: Which differential viability (reversal) value belongs to "COc1cc(-c2noc(-c3ccccc3C(=O)NCc3ccco3)n2)cc(OC)c1OC" ?
Response: -6.29

Prompt: Which differential viability (reversal) value belongs to "O=C(Nc1ncnc2sc3c(c12)CCCCC3)c1ccco1" ?
Response: -0.73

Prompt: Which differential viability (reversal) value belongs to COCc1nnc(SCC(=O)NC(C)c2ccccc2)n1-c1ccccc1 (stereo unspecified) ?
Response: -5.31

Prompt: Which differential viability (reversal) value belongs to "CCn1cc(C(=O)OCc2ccc(F)cc2)c(=O)c2ccc(C)nc21" ?
Response: 1.26

Prompt: Which differential viability (reversal) value belongs to "CNC(=O)CSc1nc2c(c(=O)n(C)c(=O)n2C)n1Cc1ccc(C)cc1" ?
Response: 16.2

Prompt: Which differential viability (reversal) value belongs to "CCCc1ccccc1OCCNC(C)=O" ?
Response: 11.2

Prompt: Which differential viability (reversal) value belongs to "Cc1cc(Cl)ccc1NC(=O)CSc1nnc(Cc2cccs2)n1Cc1ccco1" ?
Response: -8.29

Prompt: Which differential viability (reversal) value belongs to "CCOc1ccccc1N(CC(=O)N1CCOCC1)S(=O)(=O)c1ccccc1" ?
Response: 1.18

Prompt: Which differential viability (reversal) value belongs to "COc1ccc(Br)cc1S(=O)(=O)N1CCOCC1" ?
Response: 3.77

----------
PROTOCOL NOTES: HUVEC growth inhibition – cell-based, human, primary screen (AID 575);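 note: 100% = median of untreated cell wells with 0.1% DMSO on each plate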
CONDITION INFO: HUVEC proliferation, CellTiter-Glo luminescence, 72 h; at 10 µM; stronger effect = lower value
Quick rule for you: viability under 90% gets Criterion met, anything else gets Criterion not met.

Observe how each entry below is paired with its result.
CCOC(=O)C1=C(c2ccccc2)N2CCS(=O)(=O)N=C2S1; Criterion not met
CSc1oc(-c2ccccc2)nc1S(=O)(=O)c1ccc(F)cc1; Criterion met
COc1cccc(Nc2nc(=O)[nH]nc2C)c1; Criterion met

Prompt: Lab note: viability threshold 90%. Does this compound come in strictly under it? COc1cc2c(=O)nc3n(c2cc1OC)C(c1ccccc1)N=C(N)N3 (stereo unspecified)
Response: Criterion not met

Prompt: Lab note: viability threshold 90%. Does this compound come in strictly under it? "COc1nc(NCCc2ccc(OC)c(OC)c2)nc(NC(C)(C)CO)n1"
Response: Criterion not met

----------
PROTOCOL NOTES: reversal of MRP1-mediated doxorubicin resistance, pilot screen, H69AR cells, doxorubicin co-treatment (AID 601)
CONDITION INFO: H69AR cells, CellTiter-Glo, 72 h; compound alone cytotoxicity; at 10 µM
Quick rule for you: viability under 80% gets Y, anything else gets N.

Observe how each entry below is paired with its result.
CCN(c1ccccc1)S(=O)(=O)c1ccc(F)cc1C; N
O=C(Cc1cccs1)N(c1ccccc1)C1C=CS(=O)(=O)C1 (stereo not given); N
CCOc1ccc(C2C(C#N)=C(N)Oc3cc(C)n(Cc4ccco4)c(=O)c32)cc1OC (stereo not given); Y
CCn1nnnc1SCC(=O)Nc1nc(-c2cccs2)cs1; N
CN(CCCC(=O)Nc1ccncc1)S(=O)(=O)c1ccc(Cl)cc1; N
Cc1ccc2c(CC(=O)OCc3csc(C)n3)coc2c1; N
Cc1ccccc1-n1nc(C)c2cc(C(=O)NCc3cccnc3)sc21; Y
CC(=O)Nc1ccc(S(=O)(=O)N2CCN(c3cc(C)nc4ccccc34)CC2)cc1; N

Prompt: Lab note: viability threshold 80%. Does this compound come in strictly under it? "CC(C)[C@H](NC(=O)OC(C)(C)C)c1nnc(S(=O)(=O)Cc2c(F)cccc2Cl)o1"
Response: Y

Prompt: Lab note: viability threshold 80%. Does this compound come in strictly under it? COc1cc(C2C(C#N)=C(C)NC3=C2C(=O)CC(C)(C)C3)ccc1O (stereo not given)
Response: N

Prompt: Lab note: viability threshold 80%. Does this compound come in strictly under it? "Cc1nc(SCC(=O)Nc2cc(C)on2)c2c3c(sc2n1)CCCC3"
Response: Y

Prompt: Lab note: viability threshold 80%. Does this compound come in strictly under it? "CCOc1ccc(-c2nc(S(=O)(=O)c3ccccc3)c(NCc3cccnc3)o2)cc1"
Response: N

Prompt: Lab note: viability threshold 80%. Does this compound come in strictly under it? "CC(C)Oc1cccc(-c2cc(C(=O)N3CCN(S(C)(=O)=O)CC3)c3ccccc3n2)c1"
Response: Y

Prompt: Lab note: viability threshold 80%. Does this compound come in strictly under it? "COCCNC(=O)c1c(N)n(/N=C/c2cccs2)c2nc3ccccc3nc12"
Response: Y

Prompt: Lab note: viability threshold 80%. Does this compound come in strictly under it? "O=C(CN1CCN(c2nc(-c3ccc(Cl)cc3)cs2)CC1)NCc1ccco1"
Response: N

Prompt: Lab note: viability threshold 80%. Does this compound come in strictly under it? "CCn1c(=O)c2cc(S(=O)(=O)NCc3ccccc3)ccc2n(CC)c1=O"
Response: Y

Prompt: Lab note: viability threshold 80%. Does this compound come in strictly under it? "O=C(CN1C(=O)COc2ccccc21)N(Cc1cccnc1)Cc1ccccc1F"
Response: N
